Tested on: B6C3F1 mice, B16 melanoma ip, median survival T/C
Assay: NCI In Vivo Anticancer Drug Screen. Data for tumor model B16 Melanoma (intraperitoneal) in B6C3F1 mice
Conditions: endpoint: median survival time; dose: 5.0 mg/kg/injection; schedule: Q01DX009 (ip); vehicle: water
Inconclusive results and toxic doses are left out. How the source made its calls: active means survival T/C of 150% or more; inactive means T/C below 125% in these data.
Outcome codes: true for active, false for inactive

>>> class_assignment("Cc1c2ccncc2c(C)c2c1[nH]c1ccccc12")
"false"
>>> class_assignment("c1ccc2c(NCCCCCCNc3c4ccccc4nc4ccccc34)c3ccccc3nc2c1")
"false"
>>> class_assignment("COc1cc2c(c(OC)c1O)-c1ccc(SC)c(=O)cc1C(NC(C)=O)CC2 (centres undefined)")
"false"
>>> class_assignment("CC(C)NC(=O)OCc1c(COC(=O)NC(C)C)c(-c2ccc(Cl)c(Cl)c2)n2c1C[C@@H](O)C2")
"true"
